measured.on: GPR139 (Homo sapiens)
assay: GPR139 Agonist titration / agonist counterscreen assay (calcium detection, HEK-GPR139 cells)
Assay type: cell-based
Design: expressed in transfected cells; host or cells: HEK Aequorin cells, Maxcyte transient transfection
measurement.parameters: GPR139 Agonist Activity; values printed in E-notation without unit; read-out: EC50
Give pEC50 for every item shown.
Schema: pEC50 number; meaning minus log10 of the concentration expressed in molar units.

Consider the molecule COc1ccc(C2(C)NC(=O)C(CC(=O)NCCc3ccccc3)C2=O)cc1 (stereo not drawn) [SR-01000918721] . State its measured pEC50.
7.59

Consider the molecule O=C(Cn1nnc(-c2ccccc2)n1)NNC(=O)Cn1c(C(F)(F)F)nc2ccccc21 [SR-01000070891] . State its measured pEC50.
7.92

Consider the molecule Cc1cc(C)c(/C=C2/NC(=N)NC2=O)c(C)c1 [SR-01000218376] . State its measured pEC50.
7.22

* * *

Tested on: parental HEK cells
assay: HEK parental Agonist Counterscreen Assay (non-transfected cells)
Format: cell-based
measurement.parameters: Homo sapiens, HEK293; HEK Agonist Activity section of Table 4 (parental HEK counterscreen)
pEC50: −log10 of the molar value.
property.name: pEC50

Consider the compound CCCC1(CCC)NC(=O)N(CC(=O)NCc2ccc(Cl)cc2)C1=O [SR-01000050884] . State its measured pEC50.
< 4.81

Consider the compound C=C(CC1C=CC2=C1c1ccccc1CC2)Nc1ccc(CC)cc1 (stereo not drawn) [SR-01000098976] . State its measured pEC50.
< 4.85

Consider the compound O=C(Cc1ccccc1)CC1C=CC2=C1c1ccccc1CC2 (stereo not drawn) [SR-01000134941] . State its measured pEC50.
< 4.85

Consider the compound CCc1c(C2C(C(=O)OCc3ccccc3)=C(C)CC3=C2C(=O)CCC3)ccc(OC)c1OC (stereo not drawn) [SR-01000406098] . State its measured pEC50.
< 4.94

Consider the compound COc1ccc(C(=O)NNC(=O)COc2ccc(Cl)cc2Cl)cc1OC [SR-01000357814] . State its measured pEC50.
< 4.85

Consider the compound Cc1[nH]c(=O)[nH]c(=O)c1/C=N\NC(=O)CCc1ccc(OC(C)C)cc1 [SR-01000357697] . State its measured pEC50.
< 4.85

Consider the compound COc1ccc(SCC(=O)NNC(=S)Nc2ccccc2)cc1 [SR-01000526835] . State its measured pEC50.
< 4.86

Consider the compound O=C(Cn1nnc2c1-c1ccccc1OC2)Nc1cccc(Cl)c1 [SR-01000135042] . State its measured pEC50.
< 4.85

Consider the compound CC(=O)N1CCSc2cc(S(=O)(=O)NC3CCC(C)CC3)ccc21 (stereo not drawn) [SR-01000141798] . State its measured pEC50.
< 4.85

* * *

Tested on: parental HEK cells
assay: HEK parental Agonist Counterscreen Assay (non-transfected cells)
Format: cell-based
measurement.parameters: HEK Agonist Activity section
property.name: Lipophilic Efficiency (logP)
Answer with the value's number alone.

Consider the compound O=C(CNC(=O)c1ccc(Br)o1)NC1CCCc2ccccc21 (stereo not drawn) . State its measured Lipophilic Efficiency (logP).
2.64

Consider the compound Nc1ccc2c(C(F)(F)F)cc(=O)oc2c1 . State its measured Lipophilic Efficiency (logP).
3.35

Consider the compound CN1CC[C@H](Oc2cc(-c3cn[nH]c3)ccc2NC(=O)N(Cc2ccccc2)C2CC2)C1.O=C(O)C(F)(F)F.O=C(O)C(F)(F)F . State its measured Lipophilic Efficiency (logP).
1.58

Consider the compound CC(Oc1ccc(Cl)cc1Cl)C(=O)NNC(=O)COc1ccccc1 (stereo not drawn) . State its measured Lipophilic Efficiency (logP).
1.66

Consider the compound Cc1ccc(SCC(=O)NNC(=O)CCC(=O)c2cccs2)cc1 . State its measured Lipophilic Efficiency (logP).
2.43

Consider the compound O=C(Cn1ncc2c(Cl)cccc21)NCCc1ccc(Cl)cc1 . State its measured Lipophilic Efficiency (logP).
1.32

Consider the compound Cc1nc(CNC(=O)CCC2(Cc3cccc4ccccc34)CCC(=O)N2)cs1 (stereo not drawn) . State its measured Lipophilic Efficiency (logP).
2.44

Consider the compound CCC1(c2ccc(Cl)cc2)NC(=O)N(CC(=O)N2CC3(C)CC2CC(C)(C)C3)C1=O (stereo not drawn) . State its measured Lipophilic Efficiency (logP).
1.24

Consider the compound COC(=O)C(CCSC)NC(=O)C1CC(Cc2ccc3c(c2)OCO3)=NO1 (stereo not drawn) . State its measured Lipophilic Efficiency (logP).
3.01

Consider the compound Cc1ccc(CN2CCN(CC(=O)NCCc3ccc(Cl)cc3)C2=O)c(Cl)c1 . State its measured Lipophilic Efficiency (logP).
1.51

Consider the compound O=C(CNc1nnc(CCCOc2ccc(Cl)cc2Cl)o1)Nc1nccs1 . State its measured Lipophilic Efficiency (logP).
1.27

Consider the compound Cc1ccccc1C(=O)NNC(=O)C(C)Oc1ccc(Cl)cc1Cl (stereo not drawn) . State its measured Lipophilic Efficiency (logP).
0.95

Consider the compound COc1cc(C(=O)NNC(=O)C(C)Oc2ccc(Cl)cc2Cl)cc(OC)c1OC (stereo not drawn) . State its measured Lipophilic Efficiency (logP).
1.80

Consider the compound Cc1cc(=O)n2nc(NCc3ccccc3Cl)nc2[nH]1 . State its measured Lipophilic Efficiency (logP).
2.16

Consider the compound O=C(NCCn1ccc2ccccc21)c1cccs1 . State its measured Lipophilic Efficiency (logP).
1.77

Consider the compound O=C(CN1CCCN(Cc2ccc(F)cc2Cl)C1=O)NC1CCCCC1 . State its measured Lipophilic Efficiency (logP).
2.27

Consider the compound Cc1ccc2c(c1)-c1c(cnn1CC(=O)Nc1ccccn1)CO2 . State its measured Lipophilic Efficiency (logP).
2.49

Consider the compound C=C(CC1N=CC2=C1c1ccccc1CC2)NCc1ccc(C)cc1 (stereo not drawn) . State its measured Lipophilic Efficiency (logP).
2.07

* * *

Tested on: parental HEK cells
assay: HEK parental Agonist Counterscreen Assay (non-transfected cells)
Assay type: cell-based
measurement.parameters: HEK Agonist Activity; activity relative to known control
property.name: Averaged Max % Response (±St. Dev.)

Provide Averaged Max % Response (±St. Dev.), tested on parental HEK cells, for Cc1ccccc1CN1CCN(CC(=O)NCCc2ccc(Cl)cc2)C1=O .
109.44 ± 22.66%

Provide Averaged Max % Response (±St. Dev.), tested on parental HEK cells, for O=C(CSc1ccc2ccccc2c1)NNC(=O)c1ccc(Br)s1 .
15.34 ± 2.20%

Provide Averaged Max % Response (±St. Dev.), tested on parental HEK cells, for Cc1c2cnn(CC(=O)NC(C)c3ccccc3)c(=O)c2c(C)n1Cc1ccc(F)cc1 (centres unmarked) .
−0.31 ± 7.41%

Provide Averaged Max % Response (±St. Dev.), tested on parental HEK cells, for O=C(COc1ccccc1F)NNC(=O)CSc1ccc2ccccc2c1 .
4.98 ± 10.48%

Provide Averaged Max % Response (±St. Dev.), tested on parental HEK cells, for Cc1ccc(C2(C)NC(=O)N(CC(=O)NCC(C)C)C2=O)cc1 (centres unmarked) .
8.71 ± 14.83%

* * *

Give Efficiency Ligand for every item shown.
measured.on: GPR139 (Homo sapiens, UniProt Q6DWJ6)
Sequence (Q6DWJ6 1-353): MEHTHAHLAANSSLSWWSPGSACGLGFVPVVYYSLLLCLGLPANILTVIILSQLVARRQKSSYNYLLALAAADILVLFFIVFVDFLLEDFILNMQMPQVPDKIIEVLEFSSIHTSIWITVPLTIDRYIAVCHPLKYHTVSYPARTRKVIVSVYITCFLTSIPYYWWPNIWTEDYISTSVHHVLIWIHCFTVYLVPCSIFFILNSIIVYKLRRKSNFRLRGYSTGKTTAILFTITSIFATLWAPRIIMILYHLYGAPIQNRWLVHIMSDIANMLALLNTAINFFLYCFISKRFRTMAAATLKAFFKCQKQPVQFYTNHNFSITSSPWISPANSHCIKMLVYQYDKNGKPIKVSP
assay: GPR139 Agonist titration / agonist counterscreen assay (calcium detection, HEK-GPR139 cells)
Format: cell-based
Parameters: expressed in transfected cells; host or cells: HEK Aequorin cells, Maxcyte transient transfection
measurement.parameters: GPR139 Agonist Activity
Description: GPR activity was assessed using a calcium detection assay. […] Negative control samples were treated with DMSO. […] Intracellular calcium was measured using Calcium 5.

Consider the compound COc1cccc(COC(=O)NC(C)C2COc3ccccc3O2)c1 (centres unmarked) . State its measured Efficiency Ligand.
0.34

Consider the compound C=C(CC1C(=O)CC(c2ccccc2)(c2ccccc2)C1=O)C(C)CC1=CC=CC1 (centres unmarked) . State its measured Efficiency Ligand.
0.27

Consider the compound CCCCC(=O)OCC(=O)NCc1ccc(C)cc1 . State its measured Efficiency Ligand.
0.47

Consider the compound O=C(Cn1ncc2c1-c1ccccc1OC2)Nc1ccc(CCO)cc1 . State its measured Efficiency Ligand.
0.34

Consider the compound CS(=O)(=O)c1cccc(C(=O)NCCCN2CCc3ccccc32)c1 . State its measured Efficiency Ligand.
0.35

Consider the compound COc1ccc2c(c1)C[C@H](C(=O)Nc1ccc(-c3cn[nH]c3)cc1OCCN1CCCC1)NC2.O=C(O)C(F)(F)F.O=C(O)C(F)(F)F.O=C(O)C(F)(F)F . State its measured Efficiency Ligand.
0.24

Consider the compound CCCC(=O)C1CCC(C(=O)CC2CCC(c3ccc(C(C)O)cc3)C2=O)CC1 (centres unmarked) . State its measured Efficiency Ligand.
0.31

Consider the compound O=C(NCCc1ccc(Cl)cc1)c1nnc(Cc2ccc(F)cc2)o1 . State its measured Efficiency Ligand.
0.34

Consider the compound CN(C)c1ccc(NC(=O)Cn2cc(C=O)c3ccccc32)cc1 . State its measured Efficiency Ligand.
0.37

Consider the compound COc1cc(C(=O)NNC(=O)C(C)Oc2ccc(Cl)cc2Cl)cc(OC)c1OC (centres unmarked) . State its measured Efficiency Ligand.
0.31

Consider the compound O=C(CC1CCN(Cc2ccccc2O)C1=O)C1CCC(c2cccc(O)c2)C(O)C1 (centres unmarked) . State its measured Efficiency Ligand.
0.29

Consider the compound COc1ccc(CC(=O)NNC(=O)C(C)Oc2ccc(Cl)cc2Cl)cc1OC (centres unmarked) . State its measured Efficiency Ligand.
0.30

Consider the compound CCOC(=O)C1CCN(C(=O)C2CC(Cc3cccc4ccccc34)=NO2)CC1 (centres unmarked) . State its measured Efficiency Ligand.
0.28

Consider the compound NC1=NC(=O)/C(=C\c2ccc(Cl)cc2Cl)S1 . State its measured Efficiency Ligand.
0.56

Consider the compound CCCc1ccc(NC(=O)CCc2nc3c(c(=O)n2C)CCC3)cc1 . State its measured Efficiency Ligand.
0.31

Consider the compound O=C(Cn1ncn2c(cc3sccc32)c1=O)NCCc1ccc(Cl)cc1 . State its measured Efficiency Ligand.
0.33

Consider the compound COc1cc(C(=O)NNC(=O)COc2ccc3ccccc3c2)cc(OC)c1OC . State its measured Efficiency Ligand.
0.30
